# protocol summary: Permeability of compound across apical to basolateral side in MDCK-MDR1 cells
# Type: ADME, cell-based, Canis lupus familiaris
# test conditions: dog, read-out: permeability
readout kind: Papp A→B (×10⁻⁶ cm/s)
Lab book: enter the figure in ×10⁻⁶ cm/s, no units written.

Query :: Item under review: c1ccc([C@H]2CN(c3cc(O[C@H]4C[C@@H](n5cccn5)C4)ncn3)CCO2)cc1 . Reported Papp A→B?
Result :: 17.4

---

# protocol summary: Oral bioavailability in rat at 3 mg/kg
# Assay type: ADME, organism-based
# test conditions: in vivo
readout kind: bioavailability (%)
Reply numerically in %, unit not repeated.

Query :: What measured bioavailability goes with c1ccc([C@H]2CN(c3cc(O[C@H]4C[C@@H](n5cccn5)C4)ncn3)CCO2)cc1 ?
Result :: 45

---

# protocol summary: Intrinsic clearance in rat hepatocytes assessed per million cells
# Assay type: ADME, cell-based, Hepatocyte
# test conditions: read-out: CLH
# cutoff 40 µL/min/1e6 cells applies to hepatocyte CLint; >= gives 1, < gives -1

// below: answered compounds
Cc1ccnn1CCCOc1cc(N2CCOC(C(F)(F)F)C2)ncn1 (stereo unspecified) = 1
Clc1ccn([C@H]2C[C@H](c3cc(O[C@H]4C[C@@H](n5cccn5)C4)ncn3)C2)n1 = -1
Fc1ccc(CCOc2cc(N3CCCOCC3)ncn2)cc1 = 1
c1ccc([C@H]2CN(c3cc(O[C@H]4C[C@@H](c5ncco5)C4)ncn3)CCO2)cc1 = -1

Now consider a different compound.
Query :: Is the recorded value of hepatocyte CLint equal to or greater than 40 µL/min/1e6 cells for this compound? Cc1ccnn1CCCOc1cc(N2CCOC3(COC3)C2)ncn1
Result :: -1

---

# protocol summary: Lipophilicity, logD of the compound at pH 7.4
# Format: physicochemical
# test conditions: buffer
readout kind: logD
// no unit, no text: just the number

Query :: Need logD of Fc1cnn([C@H]2C[C@H](c3cc(O[C@H]4C[C@@H](n5cccn5)C4)ncn3)C2)c1 , thanks.
Result :: 3.1

---

# assay system: Very long chain fatty acid elongase 1 (Homo sapiens)
# Sequence (Q9BW60 whole entry): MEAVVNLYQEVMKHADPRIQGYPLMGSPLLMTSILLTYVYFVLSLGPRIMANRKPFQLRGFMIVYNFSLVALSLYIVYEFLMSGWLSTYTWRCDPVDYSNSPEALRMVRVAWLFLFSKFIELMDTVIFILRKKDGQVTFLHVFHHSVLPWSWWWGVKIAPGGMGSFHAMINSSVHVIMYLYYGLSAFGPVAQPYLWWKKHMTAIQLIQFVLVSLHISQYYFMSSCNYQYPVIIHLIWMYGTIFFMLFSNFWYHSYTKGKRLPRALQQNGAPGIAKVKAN
# protocol summary: Inhibition of ELOVL1 in HEK293 cells assessed as reduction of C26:0 lipo phosphatidyl choline synthesis
# Assay type: cell-based
pIC50: −log10 of the molar value.
// NOT MET strictly below 8 in pIC50; MET otherwise

Some entries whose results are on file:
Fc1cnn([C@H]2C[C@H](c3cc(O[C@H]4C[C@@H](n5cccn5)C4)ncn3)C2)c1 = MET
Cc1ccnn1CCCOc1cc(N2CCOC3(COC3)C2)ncn1 = NOT MET

Query :: Has CN(c1cc(OCCc2ccc(F)cc2)ncn1)C1CCOC1 (configuration not stated) a recorded pIC50 greater than or equal to 8?
Result :: NOT MET

Query :: Kindly determine if pIC50 recorded for Clc1ccn([C@H]2C[C@H](c3cc(O[C@H]4C[C@@H](n5cccn5)C4)ncn3)C2)n1 is above or exactly 8.
Result :: MET

---

# protocol summary: Lipophilicity, logD of the compound at pH 7.4
# Assay type: physicochemical
# test conditions: buffer
readout kind: logD

As a guide, the following entries are already answered.
c1ccc([C@H]2CN(c3cc(O[C@H]4C[C@@H](c5nnco5)C4)ncn3)CCO2)cc1 = 2.8
c1cnn([C@H]2C[C@@H](Oc3cc([C@H]4C[C@H](n5cccn5)C4)ncn3)C2)c1 = 2.6
Cc1ccnn1CCCOc1cc(N2C3COCC2C3)ncn1 = 1.3
CN(c1cc(OCCc2ccc(F)cc2)ncn1)C1CCOC1 (stereo not drawn) = 3.6
Fc1ccc(CCOc2cc(N3CCCC3)ncn2)cc1 = 3.9
Cc1ccnn1CCCOc1cc(N2CCOC(c3ccnn3C)C2)ncn1 (stereo not drawn) = 2.1
c1cnn([C@H]2C[C@@H](Oc3cc([C@H]4C[C@@H](n5cccn5)C4)ncn3)C2)c1 = 2.6
Cc1ccnn1CCCOc1cc(N2CCOC(c3ccccc3)C2)ncn1 (stereo not drawn) = 3.8

Query :: If you can, please state the reported logD value of Cc1ccnn1CCCOc1cc(N2CCCCC2)ncn1 .
Result :: 3.2

Query :: Give its logD value. Item: c1ccc([C@H]2CN(c3cc(O[C@H]4C[C@@H](c5ncco5)C4)ncn3)CCO2)cc1
Result :: 3.9

Query :: State the recorded logD for this entry: Fc1ccc(CCOc2cc(N3CCCCCC3)ncn2)cc1
Result :: 5.3

Query :: For the molecule shown here, Fc1ccc(CCOc2cc(N3CCCOCC3)ncn2)cc1 , give the reported logD.
Result :: 3.4

Query :: Need logD, item c1ccc([C@H]2CN(c3cc(O[C@H]4C[C@@H](c5ccccc5)C4)ncn3)CCO2)cc1
Result :: 5.7

These data points were gathered from ChEMBL document CHEMBL5034039.
